# Test system: A549
# PROTOCOL_NOTES: Euclidean distance of Cell Painting phenotypic profile (signed KS, 77 features) to DMSO centroid (dimensionless distance); 5 or 10 uM (library dependent); higher = stronger phenotypic change vs DMSO (phenoactivity)
# CONDITION_CONTEXT: 48 h
Counter-ions that a name gives are not always drawn.
// no strictly below 1 in Euclidean distance; yes otherwise

Sample answers from the record:
• Clc1ccc(Nc2nnc(Cc3ccncc3)c3ccccc23)cc1 [Vatalanib (PTK787) 2HCl] = yes
• CCN[C@H]1C[C@H](C)S(=O)(=O)c2sc(S(N)(=O)=O)cc21 [Dorzolamide HCl] = no
• COc1ccc(CNC(=O)Nc2ncc([N+](=O)[O-])s2)cc1 = yes
• CC1CCC(C(C)C)C(O)C1 (single isomer, unassigned; (-)) [(-)-Menthol] = no
• NC(=O)[C@@H]1CCCN1C(=O)[C@H](Cc1c[nH]cn1)NC(=O)[C@@H]1CCC(=O)N1 [Protirelin] = no
• O=C1NC(=O)C(=Cc2ccc(-c3ccc(F)cc3)o2)S1 (stereo in doubt) = no

Hi team, for O=C(Nc1ccc(OC(F)(F)F)cc1)c1sccc1NCc1ccnc2ccccc12 , is the recorded Euclidean distance at or above 1? yes
